Data origin: patent US20050222146A1

targetUnderTest: Recombinant Human MMP-13 (Homo sapiens)
methodNotes: MMP-13 inhibition, MMP-13 specific fluorescent substrate with quencher
conditionSet: synthetic substrate 7-MCA-Pro-CHA-Gly-NVal-His-Ala-DPA, 25° C. for 1 h; read-out: Experimental Example 3 IC50 MMP13
propertyMeasured: IC50

Solved cases below.
compound="O=C(O)[C@@]1(N(CCCO)S(=O)(=O)c2ccc(-c3ccc(Cl)cc3)s2)C[C@H]1c1ccccc1 [Example 2-18]" targetundertest="Recombinant Human MMP-13 (Homo sapiens)" valuereported="< 1000 nM"
compound="O=C1CN(S(=O)(=O)c2ccc(-c3ccc(Cl)cc3)s2)C2(C(=O)O)CC2(c2ccccc2)CN1 (centres unmarked) [Example 2-25]" targetundertest="Recombinant Human MMP-13 (Homo sapiens)" valuereported="≥ 1000 nM"
compound="O=C(O)c1cnn(CCN([C@]2(C(=O)O)C[C@H]2c2ccccc2)S(=O)(=O)N2CCN(c3ccc(C(F)(F)F)cc3)CC2)c1 (relative stereo) [Example 2-05]" targetundertest="Recombinant Human MMP-13 (Homo sapiens)" valuereported="≥ 1000 nM"

Ask: Return reported IC50; argument: CN1CC2(c3ccccc3)CC2(C(=O)O)N(S(=O)(=O)c2ccc(-c3ccc(Cl)cc3)s2)CC1=O (centres unmarked) [Example 2-27]
Reply: ≥ 1000 nM

Ask: Return reported IC50; argument: CN1CCN(C(=O)CN([C@@]2(C(=O)O)C[C@@H]2c2ccccc2)S(=O)(=O)c2ccc(-c3ccc(Cl)cc3)s2)CC1 [Example 2-11]
Reply: ≥ 10000 nM

* * *

A set of compounds tested on UniProtKB O75173, with measured IC50:

Ask: Return reported IC50; argument: N#Cc1ccccc1[C@@H]1C[C@@]1(C(=O)O)N(CC(=O)O)S(=O)(=O)c1ccc(-c2ccc(Cl)cc2)cc1 (relative stereo)
Reply: < 1000 nM

Ask: Return reported IC50; argument: `O=C(O)CN([C@]1(C(=O)O)C[C@H]1c1ccccc1)S(=O)(=O)c1ccc(-c2ccc(Cl)cc2)s1`
Reply: < 100 nM

Ask: Return reported IC50; argument: O=C(O)CN([C@]1(C(=O)O)C[C@H]1c1ccccc1OCc1ccccc1)S(=O)(=O)c1ccc(-c2ccc(Cl)cc2)cc1 (relative stereo)
Reply: < 100 nM

Ask: Return reported IC50; argument: CN1CC2(c3ccccc3)CC2(C(=O)O)N(S(=O)(=O)c2ccc(-c3ccc(Cl)cc3)s2)CC1=O (stereo not shown)
Reply: ≥ 1000 nM

Ask: Return reported IC50; argument: O=C(O)c1ccc(CN([C@]2(C(=O)O)C[C@H]2c2ccccc2)S(=O)(=O)c2ccc(-c3ccc(Cl)cc3)cc2)o1 (relative stereo)
Reply: < 1000 nM

Ask: Return reported IC50; argument: Nc1nnnn1CCN([C@]1(C(=O)O)C[C@H]1c1ccccc1)S(=O)(=O)N1CCN(c2ccc(C(F)(F)F)cc2)CC1 (relative stereo)
Reply: ≥ 1000 nM

Ask: Return reported IC50; argument: O=C(O)[C@@]1(N(CCNc2nnn[nH]2)S(=O)(=O)c2ccc(-c3ccc(Cl)cc3)cc2)C[C@H]1c1cccc(Oc2ccccc2)c1 (relative stereo)
Reply: < 100 nM

Ask: Return reported IC50; argument: O=C(O)[C@@]1(N(CCNS(=O)(=O)C(F)(F)F)S(=O)(=O)c2ccc(-c3ccc(Cl)cc3)cc2)C[C@H]1c1cccc(Oc2ccccc2)c1 (relative stereo)
Reply: < 1000 nM

Ask: Return reported IC50; argument: O=C(O)c1cccc(CN(C2(C(=O)O)CC2c2cccc(OCCn3ccnc3)c2)S(=O)(=O)c2ccc(-c3ccc(Cl)cc3)cc2)c1 (stereo not shown)
Reply: < 100 nM

Ask: Return reported IC50; argument: CC(C)OC(=O)NS(=O)(=O)NCCN([C@]1(C(=O)O)C[C@H]1c1ccccc1)S(=O)(=O)c1ccc(-c2ccc(Cl)cc2)cc1 (relative stereo)
Reply: < 1000 nM

* * *

targetUnderTest: aggrecanase-1 (Homo sapiens)
Sequence (O75173 213-837, species assumed): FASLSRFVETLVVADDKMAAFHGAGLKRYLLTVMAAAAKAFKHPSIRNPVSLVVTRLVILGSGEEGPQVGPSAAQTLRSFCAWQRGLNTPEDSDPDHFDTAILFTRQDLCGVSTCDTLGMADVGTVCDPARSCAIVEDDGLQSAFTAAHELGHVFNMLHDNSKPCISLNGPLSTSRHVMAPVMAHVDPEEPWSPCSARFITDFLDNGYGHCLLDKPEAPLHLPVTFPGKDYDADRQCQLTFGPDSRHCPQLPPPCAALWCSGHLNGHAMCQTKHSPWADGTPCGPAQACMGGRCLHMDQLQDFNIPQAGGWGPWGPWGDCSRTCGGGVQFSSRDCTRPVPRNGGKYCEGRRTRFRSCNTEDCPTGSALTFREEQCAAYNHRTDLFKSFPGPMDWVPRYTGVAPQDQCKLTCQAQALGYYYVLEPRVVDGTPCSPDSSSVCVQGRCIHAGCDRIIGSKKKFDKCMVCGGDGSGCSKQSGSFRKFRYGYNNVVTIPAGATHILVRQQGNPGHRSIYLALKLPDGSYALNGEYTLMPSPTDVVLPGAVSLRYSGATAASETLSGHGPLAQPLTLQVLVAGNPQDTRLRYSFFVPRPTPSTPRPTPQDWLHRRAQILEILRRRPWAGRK
methodNotes: Aggrecanase-1 inhibitory action, Particle Assay (GAG release from aggrecan-containing polyacrylamide particles)
Type: biochemical
conditionSet: 37° C. for 15 hr, read-out: Experimental Example 1 IC50 AG1
pIC50: −log10 of the molar value.
In this section we review reported pIC50 values for a set of compounds.

Solved cases below.
compound="O=C(CN([C@]1(C(=O)O)C[C@H]1c1ccccc1)S(=O)(=O)c1ccc(-c2ccc(Cl)cc2)cc1)N1CCCC1 (relative stereo)" valuereported="> 6.00"
compound=CN([C@@]1(C(=O)O)C[C@@H]1c1ccccc1)S(=O)(=O)c1ccc(-c2ccc(Cl)cc2)s1 valuereported="≤ 6.00"

Let us move to another entry and its pIC50.
Ask: Return reported pIC50; argument: `CN1CCN(C(=O)OCCN([C@]2(C(=O)O)C[C@H]2c2ccccc2)S(=O)(=O)c2ccc(-c3ccc(Cl)cc3)s2)CC1`
Reply: ≤ 6.00
